Molecular target: Tyrosine-protein kinase BTK (Homo sapiens, UniProt Q06187)
Sequence (Q06187 whole entry): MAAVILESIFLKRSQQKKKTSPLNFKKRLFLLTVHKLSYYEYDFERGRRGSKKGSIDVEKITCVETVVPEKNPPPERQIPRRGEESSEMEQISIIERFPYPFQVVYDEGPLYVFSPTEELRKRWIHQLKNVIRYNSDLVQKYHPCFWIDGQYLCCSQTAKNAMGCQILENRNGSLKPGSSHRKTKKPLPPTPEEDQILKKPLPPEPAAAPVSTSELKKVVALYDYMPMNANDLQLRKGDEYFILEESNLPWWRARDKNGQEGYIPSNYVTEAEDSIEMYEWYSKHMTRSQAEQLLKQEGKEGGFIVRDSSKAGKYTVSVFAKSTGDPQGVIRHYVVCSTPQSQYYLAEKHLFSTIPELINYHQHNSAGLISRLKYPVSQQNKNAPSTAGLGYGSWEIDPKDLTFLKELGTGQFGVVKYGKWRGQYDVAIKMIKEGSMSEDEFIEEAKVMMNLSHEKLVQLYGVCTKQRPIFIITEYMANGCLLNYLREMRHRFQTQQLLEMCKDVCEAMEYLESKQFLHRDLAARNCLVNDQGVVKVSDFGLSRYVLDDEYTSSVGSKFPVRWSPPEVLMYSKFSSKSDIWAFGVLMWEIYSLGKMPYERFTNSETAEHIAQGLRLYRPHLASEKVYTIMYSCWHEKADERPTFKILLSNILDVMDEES

# cpd-smiles, display-unit, IC50
rows = [
    ("CC#CC(=O)N1CC[C@]2(C1)C[C@H](n1nc(-c3ccc(Oc4ccccc4)cn3)c3c(N)ncnc31)C2", "nM", 4),
    ("CC#CC(=O)N1CC2(CC(n3nc(-c4ccc(Oc5ccccc5)cn4)c4c(N)ncnc43)C2)C1", "nM", 1),
    ("C/C=C/C(=O)N1CC2(CC(n3nc(-c4ccc(Oc5ccccc5)cn4)c4c(N)ncnc43)C2)C1", "nM", 65),
    ("C=CC(=O)N1CC2(CC(n3nc(-c4ccc(Oc5ccccc5)cn4)c4c(N)ncnc43)C2)C1", "nM", 1.6),
]
